Data credit: ChEMBL document CHEMBL4513146

# Test system: Cryptococcus neoformans
# condition.notes: Concentration 32 ug.mL-1; ASSAY_TEST Inhibition of Fungal Growth; detection method Resazurin; Absorption (OD600-OD570); plate type 384well; NBS; CORNING #3640
# Description: Antifungal activity against Cryptococcus neoformans H99 ATCC 208821 (CO-ADD:FG_002); MIC in YNB media using NBS plates, by Resazurin OD(600-570)
Potency and affinity values are given separately.
observation.type: Inhibition (%)
# unit: % | format: bare number

Here is how some compounds turned out for Inhibition.
compound: O=c1c2sccc2n2c(=O)n(Cc3cccc(F)c3)nc2n1Cc1cccs1
numeric.readout: -19.84

compound: Cc1ccc(Oc2nccn3c(=O)n(CC(=O)NCCC4=CCCCC4)nc23)cc1
numeric.readout: -9.17

compound: CCC(Sc1nnc2c(=O)n(-c3cccc(OC)c3)ccn12)C(=O)Nc1cc(F)ccc1F (stereo not given)
numeric.readout: -8.66

compound: COc1ccc(NC(=O)CSc2nnc3c(=O)n(-c4ccccc4)ccn23)cc1
numeric.readout: -4.81

Turning to the following compound.
The recorded Inhibition for entry Cc1cc2nn(CC(=O)NCc3ccccc3)c(=O)n2c(-c2ccc(C(F)(F)F)cc2)n1 equals -6.62
